Target: LXR α (Homo sapiens)
Construct: Co-transfection expression plasmids, comprising full-length LXR α (pCMX-hLXR α); expressed in transfected cells; host or cells: CV-1 African Green Monkey kidney cells, transient transfection
Sequence (Q13133 whole entry): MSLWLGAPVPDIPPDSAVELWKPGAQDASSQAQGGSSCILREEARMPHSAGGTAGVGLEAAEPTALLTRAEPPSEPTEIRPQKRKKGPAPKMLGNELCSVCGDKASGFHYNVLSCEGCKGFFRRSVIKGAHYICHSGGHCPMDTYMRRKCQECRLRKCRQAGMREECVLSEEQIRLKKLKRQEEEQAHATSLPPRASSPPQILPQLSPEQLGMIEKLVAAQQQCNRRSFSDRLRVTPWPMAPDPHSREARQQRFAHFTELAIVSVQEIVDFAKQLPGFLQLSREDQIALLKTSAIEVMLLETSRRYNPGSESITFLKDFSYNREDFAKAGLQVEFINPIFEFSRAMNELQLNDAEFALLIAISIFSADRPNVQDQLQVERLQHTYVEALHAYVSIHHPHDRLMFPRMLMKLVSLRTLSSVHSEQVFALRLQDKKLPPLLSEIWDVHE
Sequence (P19793 whole entry partner): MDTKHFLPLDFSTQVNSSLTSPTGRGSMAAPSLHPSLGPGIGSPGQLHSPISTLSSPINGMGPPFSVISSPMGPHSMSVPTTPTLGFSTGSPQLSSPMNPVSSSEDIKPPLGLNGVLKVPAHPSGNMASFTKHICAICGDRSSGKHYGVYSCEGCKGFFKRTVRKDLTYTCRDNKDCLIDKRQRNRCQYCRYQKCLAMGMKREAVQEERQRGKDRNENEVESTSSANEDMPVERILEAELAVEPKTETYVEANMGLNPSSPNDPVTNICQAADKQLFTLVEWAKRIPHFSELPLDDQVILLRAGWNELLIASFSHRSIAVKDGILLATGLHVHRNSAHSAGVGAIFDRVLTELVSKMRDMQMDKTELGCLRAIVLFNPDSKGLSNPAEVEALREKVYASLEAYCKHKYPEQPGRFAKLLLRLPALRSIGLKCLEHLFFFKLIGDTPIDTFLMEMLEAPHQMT
Test: LXR/LXRE co-transfection assay (luciferase reporter, CV-1 cells)
Format: cell-based
Details: CV-1, average percent efficacy, relative to control N-(3-((4-fluorophenyl)-(naphthalene-2-sulfonyl)amino)propyl)-2,2-dimethylpropionamide, read-out: % Eff(a)
measured-attribute: Emax

As a guide, the following entries are already answered.
Nc1ccc(-c2coc(-c3cc4cccc(Cl)c4c(=O)n3Cc3ccc(F)cc3F)c2)cc1C(F)(F)F > 90%
Cc1cccc(-c2cc3ccccc3c(=O)n2Cc2ccccc2)c1 < 40%
Cc1ccc(Cn2c(-c3ccsc3)cc3ccccc3c2=O)c(C)c1 40 to 90%
CS(=O)(=O)c1ccc(-c2ccc(-c3cc4cccc(Cl)c4c(=O)n3Cc3ccc(F)cc3F)s2)cc1 40 to 90%

Could you now consider this next compound?
Which Emax is listed for O=c1c2c(Cl)cccc2cc(-c2ccc(Oc3cnccn3)cc2)n1Cc1ccc(F)cc1F ?
> 90%

====

Biological target: LXRβ (Homo sapiens, UniProt P55055)
Construct: were made by cloning the appropriate full-length cDNAs into the pBacPakhis1 vector; poly-His (pBacPakhis1) (N)
Sequence (P19793 whole entry): as the sequence (P19793 whole entry partner) above
Sequence (P55055 whole entry): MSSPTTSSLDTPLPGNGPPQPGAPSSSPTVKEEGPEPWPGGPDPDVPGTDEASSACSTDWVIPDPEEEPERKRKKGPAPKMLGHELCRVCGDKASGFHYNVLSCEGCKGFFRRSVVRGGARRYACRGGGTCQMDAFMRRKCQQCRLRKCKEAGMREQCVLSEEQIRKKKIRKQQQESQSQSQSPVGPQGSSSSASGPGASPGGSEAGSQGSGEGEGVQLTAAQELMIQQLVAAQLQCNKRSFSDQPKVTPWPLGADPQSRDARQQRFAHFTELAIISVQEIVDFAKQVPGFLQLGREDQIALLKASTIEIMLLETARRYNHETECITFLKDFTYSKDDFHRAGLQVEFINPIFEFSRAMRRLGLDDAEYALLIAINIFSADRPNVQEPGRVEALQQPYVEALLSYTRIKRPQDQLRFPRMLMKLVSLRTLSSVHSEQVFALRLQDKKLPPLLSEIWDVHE
Test: Scintillation proximity assay (SPA), competition with 3H-24,25-epoxycholesterol
Conditions: average Ki with respect to LXR β, read-out: Ki(b)
Method: The SPA assay measures the radioactive signal generated by the binding of ^3H-24,25-epoxycholesterol to LXRα or LXRβ. […] The light is measured using a standard microplate scintillation reader. The ability of a ligand to bind to a receptor can be measured by assessing the degree to which the compound can compete off a radiolabelled ligand with known affinity for the receptor. […]
pKi: −log10 of the molar value.
measured-attribute: pKi

compound	pKi
Cc1cccc(-c2cc3ccccc3c(=O)n2Cc2ccccc2)c1 [2-benzyl-3-m-tolyl-2H-isoquinolin-1-one]	< 6.30
O=c1c2c(Cl)cccc2cc(-c2cc(-c3cc(C(F)(F)F)cc(C(F)(F)F)c3)co2)n1Cc1ccc(F)cc1F	6.82 to 8.00
Nc1ccc(-c2coc(-c3cc4cccc(Cl)c4c(=O)n3Cc3ccc(F)cc3F)c2)cc1C(F)(F)F	6.82 to 8.00

Could you now consider this next compound?
Which pKi is listed for Cc1ccc(Cn2c(-c3ccsc3)cc3ccccc3c2=O)c(C)c1 ?
6.30 to 6.82

====

Biological target: LXR β (Homo sapiens, UniProt P55055)
Construct: comprising full-length LXR α (pCMX-hLXR α), LXR β (pCMX-hLXR β), or RXR α (pCMX-RXR); expressed in transfected cells; host or cells: CV-1 African Green Monkey kidney cells, transient transfection
Experiment: LXR/LXRE co-transfection assay (luciferase reporter, CV-1 cells)
Format: cell-based
Conditions: average EC50 for agonism, cotransfection assay, CV-1 cells
pEC50: −log10 of the molar value.
measured-attribute: pEC50

As a guide, the following entries are already answered.
Cc1ccc(Cn2c(-c3ccc(Oc4ccccc4)cc3)cc3ccccc3c2=O)c(C)c1 6.82 to 8.00
O=c1c2c(Cl)cccc2cc(-c2ccc(Oc3ccccc3)cc2)n1Cc1ccc(F)cc1F 6.82 to 8.00

Could you now consider this next molecule?
Which pEC50 is listed for Nc1ccc(-c2coc(-c3cc4cccc(Cl)c4c(=O)n3Cc3ccc(F)cc3F)c2)cc1C(F)(F)F ?
6.82 to 8.00

FYI, the data here is from patent US7265131B2.
